Data origin, for the record: PubChem BioAssay AID248

Tested on: L1210 leukemia ip in BDF1 mice, survival T/C
assayRemarks: NCI In Vivo Anticancer Drug Screen. Data for tumor model L1210 Leukemia (intraperitoneal) in B6D2F1 (BDF1) mice
condition: endpoint: mean survival time; dose: 200.0 mg/kg/injection; schedule: Q04DX003 (ip); vehicle: saline with Tween-80; higher = longer survival
Inconclusive results and toxic doses are left out.
Answer each item with its documented T/C.

Take a look at these entries with their results.
>  <molecule>
ClCCOC(OCCCl)OCCCl

>  <experimentalResult>
104 % of control

$$$$
>  <molecule>
C/C=C(/Cl)c1c(C)cc(C)cc1C

>  <experimentalResult>
98 % of control

$$$$
>  <molecule>
CC(=O)Oc1ccc2c(=O)c(-c3ccccc3)c(C)oc2c1

>  <experimentalResult>
108 % of control

$$$$
>  <molecule>
CCOC(=O)c1ccc(N2C(C#N)c3ccccc3OC2c2ccccc2O)cc1 (stereo unspecified)

>  <experimentalResult>
97 % of control

$$$$
>  <molecule>
COc1ccc(C(=O)CC(c2ccccc2)N2CCCCC2)cc1OC (stereo unspecified)

>  <experimentalResult>
108 % of control

$$$$
>  <molecule>
O=C(O)/C=C\c1cccc([N+](=O)[O-])c1

>  <experimentalResult>
93 % of control

$$$$
>  <molecule>
NC(=O)NC1CCCCCCC1

>  <experimentalResult>
89 % of control

$$$$
>  <molecule>
c1ccc(-c2nc(Oc3ccc(Oc4nc(-c5ccccc5)nc(-c5ccccc5)n4)cc3)nc(-c3ccccc3)n2)cc1

>  <experimentalResult>
86 % of control

$$$$

# map each molecule to its T/C
1. S=c1[nH]cc2cnccn12
2. OC(C#Cc1ccccc1)c1ccccc1 (stereo unspecified)
3. N#CC(C#N)=Cc1cc2c3c(c1)CCCN3CCC2
4. CC1=CC(=O)N(CCl)C1=O
5. CCCCC#CC(=O)OCCC

["100 % of control", "101 % of control", "92 % of control", "94 % of control", "99 % of control"]

# map each molecule to its T/C
1. CCCCCCCCCCCC(=O)CC
2. Nc1ccccc1SCc1ccccc1
3. CCOC(=O)/C(C#N)=C\c1cc(OC)ccc1OC
4. COc1c(O)cc2c(c1OC)-c1ccc(OC)c(=O)cc1C(NC=O)CC2 (stereo unspecified)
5. COc1ccccc1NC(N)=O

1. 103 % of control
2. 96 % of control
3. 94 % of control
4. 93 % of control
5. 107 % of control

# map each molecule to its T/C
1. O=C(Nc1ccc(F)cc1)Nc1ccc(Cl)cc1[N+](=O)[O-]
2. CCCc1cc2c3c(c(=O)oc2cc1OC)CCCC3
3. C=CN(C=C)P(=O)(C1C(=O)C(C(=O)OCC)C(c2ccc(OC(C)=O)cc2)C(C(=O)OCC)C1=O)C1C(=O)C(C(=O)OCC)C(c2ccc(OC(C)=O)cc2)C(C(=O)OCC)C1=O (stereo unspecified)
4. O=C(N/N=C\c1cccc2ccccc12)C(=O)N/N=C/c1cccc2ccccc12
5. CCCC1C/C(=C\NC(N)=O)C(=O)O1 (stereo unspecified)
6. CCC(C)C(CO)c1ccccc1 (stereo unspecified)
7. CCCCCCCCNc1ccccc1

1. 97 % of control
2. 104 % of control
3. 96 % of control
4. 88 % of control
5. 96 % of control
6. 91 % of control
7. 106 % of control

Form field: reported T/C of `CCOC(=O)c1cnc(SC)nc1N(C)C`
96 % of control
